# target: SHP2 catalytic domain (SHP2cat; residues 248–527) (Homo sapiens)
# Construct: the SHP2 catalytic domain (SHP2cat; residues 248–527); made in house
# protocolNotes: DiFMUP fluorescence phosphatase inhibition assay, SHP2cat
# Type: biochemical
# reportedConditions: catalytic domain; DiFMUP at Km; read-out: SHP2 IC50 (Table 2)
pIC50: −log10 of the molar value.
Returns one of 1 (yes) or 0 (no); 1 (yes) when pIC50 is >= 6.

>  <structureSmiles>
Nc1ccc(NC(=O)c2cc(-c3ccc(/C=C4\Sc5ccccc5C4=O)o3)ccc2O)cc1

>  <labelClass>
1 (yes)

$$$$
>  <structureSmiles>
O=C1/C(=C/c2ccc(-c3ccc(O)c(-c4nn[nH]n4)c3)o2)Sc2ccccc21

>  <labelClass>
0 (no)

$$$$

* * *

# target: PTP1B (1–300) catalytic domain (Homo sapiens, UniProt P18031)
# Construct: Recombinant human PTP1B (1–300); His tag (pET-15b) (N)
# Sequence (P18031 1-300): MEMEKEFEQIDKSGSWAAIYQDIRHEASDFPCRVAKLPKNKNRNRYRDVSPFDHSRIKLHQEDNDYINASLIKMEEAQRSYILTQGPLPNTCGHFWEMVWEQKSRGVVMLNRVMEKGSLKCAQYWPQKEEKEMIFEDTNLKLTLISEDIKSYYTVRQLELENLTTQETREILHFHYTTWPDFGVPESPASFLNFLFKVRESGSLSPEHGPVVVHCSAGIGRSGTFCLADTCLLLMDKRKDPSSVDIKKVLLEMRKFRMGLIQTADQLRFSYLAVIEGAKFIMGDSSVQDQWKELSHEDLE
# protocolNotes: DiFMUP phosphatase inhibition assay, PTP1B
# reportedConditions: catalytic domain; DiFMUP at Km (25 μM)
pIC50: −log10 of the molar value.

>  <compound>
O=C(Nc1ccccc1)c1cc(-c2ccc(/C=C3\Sc4ccccc4C3=O)o2)ccc1O [SBI-4668]

>  <pIC50>
5.03

$$$$
>  <compound>
O=C1/C(=C/c2ccc(-c3ccc(O)c(-c4nn[nH]n4)c3)o2)Sc2ccccc21 [SBI-3405]

>  <pIC50>
5.28

$$$$
>  <compound>
O=C1CCCC1=Cc1ccc(-c2ccc(O)c(C(=O)Nc3ccccc3)c2)o1 [SBI-3192]

>  <pIC50>
5.72

$$$$
>  <compound>
Nc1ccc(NC(=O)c2cc(-c3ccc(/C=C4\Sc5ccccc5C4=O)o3)ccc2O)cc1 [SBI-2130]

>  <pIC50>
5.17

$$$$
>  <compound>
N#Cc1cc(-c2ccc(/C=C3\Sc4ccccc4C3=O)o2)ccc1O [SBI-3404]

>  <pIC50>
5.13

$$$$

* * *

# target: full-length SHP2-E76K oncogenic mutant (Homo sapiens, UniProt Q06124, E76K)
# Construct: Recombinant human full-length SHP2 (1–594) WT and E76K mutants
# Sequence (Q06124 1-593 E76K): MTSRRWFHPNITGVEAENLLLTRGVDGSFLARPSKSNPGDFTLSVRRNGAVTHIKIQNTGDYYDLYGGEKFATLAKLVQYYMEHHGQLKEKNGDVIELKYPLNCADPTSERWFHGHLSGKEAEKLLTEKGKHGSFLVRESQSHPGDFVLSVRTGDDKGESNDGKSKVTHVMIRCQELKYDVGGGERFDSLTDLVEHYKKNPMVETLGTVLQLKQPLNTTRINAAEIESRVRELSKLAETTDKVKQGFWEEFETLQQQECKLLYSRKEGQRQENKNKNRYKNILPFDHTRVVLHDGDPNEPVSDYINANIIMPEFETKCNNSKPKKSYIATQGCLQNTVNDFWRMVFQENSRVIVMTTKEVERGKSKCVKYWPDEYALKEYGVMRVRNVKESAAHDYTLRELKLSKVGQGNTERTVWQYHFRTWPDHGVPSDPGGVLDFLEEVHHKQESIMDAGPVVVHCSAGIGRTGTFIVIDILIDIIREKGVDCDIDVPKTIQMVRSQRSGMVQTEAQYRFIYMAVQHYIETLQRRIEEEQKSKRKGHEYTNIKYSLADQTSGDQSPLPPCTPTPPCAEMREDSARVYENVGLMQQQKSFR
# protocolNotes: DiFMUP fluorescence phosphatase inhibition assay, SHP2-E76K
# reportedConditions: DiFMUP at Km (20 μM), 10-point dose–response, pH 6.0

>  <structureSmiles>
O=C(NCc1ccccc1)c1cccc(-c2ccc(/C=C3\Sc4ccccc4C3=O)o2)c1

>  <IC50>
65 µM

$$$$
>  <structureSmiles>
O=C(NCCO)c1cc(-c2ccc(/C=C3\Sc4ccccc4C3=O)o2)ccc1O

>  <IC50>
> 100 µM

$$$$
>  <structureSmiles>
O=C(Nc1ccccc1)c1cc(-c2ccc(/C=C3\Sc4ccccc4C3=O)o2)ccc1F

>  <IC50>
> 100 µM

$$$$
>  <structureSmiles>
O=C1/C(=C/c2ccc(-c3ccc(O)cc3)o2)Sc2ccccc21

>  <IC50>
79 µM

$$$$
>  <structureSmiles>
O=C1/C(=C/c2ccc(-c3ccc(O)c(C(=O)N4CCCCC4)c3)o2)Sc2ccccc21

>  <IC50>
15 µM

$$$$
>  <structureSmiles>
N#Cc1cc(-c2ccc(/C=C3\Sc4ccccc4C3=O)o2)ccc1O

>  <IC50>
4.2 µM

$$$$
>  <structureSmiles>
O=C1CCCC1=Cc1ccc(-c2ccc(O)c(C(=O)Nc3ccccc3)c2)o1

>  <IC50>
2.3 µM

$$$$
>  <structureSmiles>
O=C(O)c1cc(-c2ccc(/C=C3\Oc4ccccc4C3=O)o2)ccc1O

>  <IC50>
7.2 µM

$$$$
>  <structureSmiles>
O=C(O)c1cc(-c2ccc(C=C3Cc4ccccc4C3=O)o2)ccc1O

>  <IC50>
10 µM

$$$$

* * *

# target: SHP2 catalytic domain (SHP2cat; residues 248–527) (Homo sapiens, UniProt Q06124)
# Construct: the SHP2 catalytic domain (SHP2cat; residues 248–527); made in house
# protocolNotes: DiFMUP fluorescence phosphatase inhibition assay, SHP2cat
# Format: biochemical
# reportedConditions: DiFMUP at Km (20 μM), pH 6.0; read-out: SHP2cat; IC50

>  <structureSmiles>
O=C(O)c1cc(-c2ccc(/C=C3\Oc4ccccc4C3=O)o2)ccc1O

>  <IC50 (nM)>
2400

$$$$
>  <structureSmiles>
O=C(O)c1cc(-c2ccc(C=C3Cc4ccccc4C3=O)o2)ccc1O

>  <IC50 (nM)>
4500

$$$$
>  <structureSmiles>
O=C(NNc1ccccc1)c1cc(-c2ccc(/C=C3\Sc4ccccc4C3=O)o2)ccc1O

>  <IC50 (nM)>
3100

$$$$
>  <structureSmiles>
Nc1ccc(NC(=O)c2cc(-c3ccc(/C=C4\Sc5ccccc5C4=O)o3)ccc2O)cc1

>  <IC50 (nM)>
220

$$$$
>  <structureSmiles>
O=C1/C(=C/c2ccc(-c3ccc(O)c(C(=O)N4CCCCC4)c3)o2)Sc2ccccc21

>  <IC50 (nM)>
4300

$$$$
>  <structureSmiles>
Nc1cccc(NC(=O)c2cc(-c3ccc(/C=C4\Sc5ccccc5C4=O)o3)ccc2O)c1

>  <IC50 (nM)>
5000

$$$$
>  <structureSmiles>
O=C(Nc1ccccc1)c1cc(-c2ccc(/C=C3\Sc4ccccc4C3=O)o2)ccc1O

>  <IC50 (nM)>
730

$$$$
>  <structureSmiles>
N#Cc1cc(-c2ccc(/C=C3\Sc4ccccc4C3=O)o2)ccc1O

>  <IC50 (nM)>
1400

$$$$

* * *

# target: full-length SHP2 WT (SHP2-WT) (Homo sapiens, UniProt Q06124)
# Construct: Recombinant human full-length SHP2 (1–594) WT and E76K mutants
# protocolNotes: DiFMUP fluorescence phosphatase inhibition assay, SHP2-WT activated with IRS-1 peptide
# reportedConditions: DiFMUP at Km (60 μM), pH 6.0
# Source text: To test the synthesized compounds for their potential to inhibit SHP2 activity, a fluorescence intensity-based assay using 6,8-difluoro-4-methylumbelliferyl phosphate (DiFMUP) as the substrate was adapted for three recombinant SHP2 constructs: (1) the SHP2 catalytic domain (SHP2cat; residues 248–527), (2) the full-length SHP2-E76K oncogenic mutant, and (3) the full-length SHP2 WT (SHP2-WT). The recombinant SHP2 proteins were expressed and purified as described previously ([36]). […]

>  <structureSmiles>
O=C(NNc1ccccc1)c1cc(-c2ccc(/C=C3\Sc4ccccc4C3=O)o2)ccc1O

>  <censoringSign>
=

>  <IC50 [µM]>
14

$$$$
>  <structureSmiles>
O=C(O)c1cc(-c2ccc(C=C3Cc4ccccc4C3=O)o2)ccc1O

>  <censoringSign>
=

>  <IC50 [µM]>
15

$$$$
>  <structureSmiles>
CN1CCN(C(=O)c2cc(-c3ccc(/C=C4\Sc5ccccc5C4=O)o3)ccc2O)CC1

>  <censoringSign>
>

>  <IC50 [µM]>
100

$$$$
>  <structureSmiles>
O=C(O)c1cc(-c2ccc(/C=C3\Oc4ccccc4C3=O)o2)ccc1O

>  <censoringSign>
=

>  <IC50 [µM]>
13

$$$$
>  <structureSmiles>
O=C1/C(=C/c2ccc(-c3ccc(O)cc3)o2)Sc2ccccc21

>  <censoringSign>
>

>  <IC50 [µM]>
100

$$$$
>  <structureSmiles>
O=C1/C(=C/c2ccc(-c3ccc(O)c(C(=O)N4CCCCC4)c3)o2)Sc2ccccc21

>  <censoringSign>
=

>  <IC50 [µM]>
52

$$$$
>  <structureSmiles>
O=C(NCCO)c1cc(-c2ccc(/C=C3\Sc4ccccc4C3=O)o2)ccc1O

>  <censoringSign>
>

>  <IC50 [µM]>
100

$$$$
>  <structureSmiles>
Nc1cccc(NC(=O)c2cc(-c3ccc(/C=C4\Sc5ccccc5C4=O)o3)ccc2O)c1

>  <censoringSign>
=

>  <IC50 [µM]>
18

$$$$
>  <structureSmiles>
O=C(Nc1ccccc1)c1cc(-c2ccco2)ccc1O

>  <censoringSign>
>

>  <IC50 [µM]>
100

$$$$
>  <structureSmiles>
N#Cc1cc(-c2ccc(/C=C3\Sc4ccccc4C3=O)o2)ccc1O

>  <censoringSign>
=

>  <IC50 [µM]>
11

$$$$
>  <structureSmiles>
O=C1CCCCC1=Cc1ccc(-c2ccc(O)c(C(=O)O)c2)o1

>  <censoringSign>
=

>  <IC50 [µM]>
56

$$$$
>  <structureSmiles>
O=C1/C(=C/c2ccc(-c3ccc(O)c(C(=O)N4CCNCC4)c3)o2)Sc2ccccc21

>  <censoringSign>
>

>  <IC50 [µM]>
100

$$$$
>  <structureSmiles>
O=C1/C(=C/c2ccc(-c3ccccc3)o2)Sc2ccccc21

>  <censoringSign>
>

>  <IC50 [µM]>
100

$$$$
>  <structureSmiles>
CC(C)NC(=O)c1cccc(-c2ccc(/C=C3\Sc4ccccc4C3=O)o2)c1

>  <censoringSign>
>

>  <IC50 [µM]>
100

$$$$
>  <structureSmiles>
O=C(Nc1ccccc1)c1cc(-c2ccc(/C=C3\Sc4ccccc4C3=O)o2)ccc1O

>  <censoringSign>
=

>  <IC50 [µM]>
15

$$$$
>  <structureSmiles>
O=C1/C(=C/c2ccc(-c3ccc(O)c(-c4nn[nH]n4)c3)o2)Sc2ccccc21

>  <censoringSign>
=

>  <IC50 [µM]>
4.2

$$$$
>  <structureSmiles>
COc1ccc(-c2ccc(/C=C3\Sc4ccccc4C3=O)o2)cc1C(=O)Nc1ccccc1

>  <censoringSign>
=

>  <IC50 [µM]>
87

$$$$
>  <structureSmiles>
Nc1ccc(NC(=O)c2cc(-c3ccc(/C=C4\Sc5ccccc5C4=O)o3)ccc2O)cc1

>  <censoringSign>
=

>  <IC50 [µM]>
5

$$$$
